Target: mouse IL-2 (mIL-2, amino acids 1–149), hexahistidine-tagged (Mus musculus, UniProt P04351)
Sequence (P04351 21-169): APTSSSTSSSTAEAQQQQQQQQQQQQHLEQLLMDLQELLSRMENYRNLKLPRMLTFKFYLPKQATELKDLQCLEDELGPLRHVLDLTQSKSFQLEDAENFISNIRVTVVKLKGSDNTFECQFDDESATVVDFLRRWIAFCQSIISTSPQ
Assay: SPR
Assay endpoint: Kd (nM)
Your answer is read as nM, so omit the unit and give the number.

For orientation, consider the following solved cases.
[
  {
    "Binder": "biotinylated JES6–1 antibody mutant S34A (VL) (antibody, V domains shown) VH: EIQLQQSGPELRRPGSSVKLSCKASGYNITDYLIHWVRHRPEHGLEWIGWIDPEDGETRYAQKFQSKATLTADTSSNAAYMQLSSLTPEDTATYFCARSLDSTYIYPFAYWGQGTLVTVSS VL: DIVMTQSPFSLAVSEGEMVTINCKSSQSLLASGNQKNYLAWYQQKPGQSPKLLIYYASTGQSGVPDRFIGSGSGTDFTLTISDVQAEDLADYYCLQHYISPPTFGAGTKLELK",
    "Endpoint unit": "nM",
    "Kd": 6.5
  },
  {
    "Binder": "biotinylated JES6–1 antibody mutant E60A (VH) (antibody, V domains shown) VH: EIQLQQSGPELRRPGSSVKLSCKASGYNITDYLIHWVRHRPEHGLEWIGWIDPEDGATRYAQKFQSKATLTADTSSNAAYMQLSSLTPEDTATYFCARSLDSTYIYPFAYWGQGTLVTVSS VL: DIVMTQSPFSLAVSEGEMVTINCKSSQSLLSSGNQKNYLAWYQQKPGQSPKLLIYYASTGQSGVPDRFIGSGSGTDFTLTISDVQAEDLADYYCLQHYISPPTFGAGTKLELK",
    "Endpoint unit": "nM",
    "Kd": 56
  }
]

# context switch: different binder, same Kd
query: Give the reported Kd for this binder. biotinylated JES6–1 antibody mutant Y101A (VL) (antibody, V domains shown) VH: EIQLQQSGPELRRPGSSVKLSCKASGYNITDYLIHWVRHRPEHGLEWIGWIDPEDGETRYAQKFQSKATLTADTSSNAAYMQLSSLTPEDTATYFCARSLDSTYIYPFAYWGQGTLVTVSS VL: DIVMTQSPFSLAVSEGEMVTINCKSSQSLLSSGNQKNYLAWYQQKPGQSPKLLIYYASTGQSGVPDRFIGSGSGTDFTLTISDVQAEDLADYYCLQHAISPPTFGAGTKLELK
result: 12
